- Study system: pooled human IgG (human IgG1,2,3 and 4)
Endpoint: Enzyme Activity Endpoint Assay: scIgG (ng/µL)
Response body: numeric value in ng/µL, unit text excluded.

Enquiry: What does the record list as Enzyme Activity Endpoint Assay: scIgG for PRT-91 (protein) MANQEIRYSEETPYHITSVWTKGVTPPAKFTQGEDVFHAPYVANQGWYDITKTFNGKDDLLCGAATAGNMLHWWFDQNKEKIEAYLKKHPEKQKIMFGDQELLDVRKVINTKDDQTNSELFNYFRDKAFPNLSARRLGVMPDLVLDMFINGYYLNVGKTQTTDVNRTYQEKDKRGGIFDAVFTRGDQSKLLTSRHDFKEKNLKEISDLIKQELTEGKALGLSHTYANVRINHVINLWGADFDSNGNLKAIYVTDSDSNASIGMKKYFVGVNSAGKVAISAKEIEEDNIGAQVLGLFTLSTGQDIWNQTN ?
Return: 9
